Tested on: nutsedge, yellow (yellow nutsedge, Cyperus esculentus)
Experiment: Test C greenhouse herbicide test, pre- and postemergence
Assay type: in vivo
Conditions: Postemergence, 31 g ai/ha; scale 0 to 100 (0 no effect, 100 complete control)
Description: […]
Entries and their Plant response rating, Nutsedge, Yellow

The following compounds have reported results that may help.
Cc1sc2ccc(Cl)cc2c1-c1c(OS(C)(=O)=O)c(Cl)nn(C)c1=O; 10
Cc1nn(C)c(=O)c(-c2cccc3ccc(C#N)cc23)c1O; 10
Cc1ccc2ccccc2c1-c1c(OC(=O)N2CCOCC2)c(Br)nn(C)c1=O; 5
CC(=O)Oc1c(C)nn(C)c(=O)c1-c1c([N+](=O)[O-])ccc2ccccc12; 20
Cc1nn(C)c(=O)c(-c2c(C)sc3ccc(Cl)cc23)c1O; 55
CCC(=O)Oc1c(C)nn(C)c(=O)c1-c1c(C)sc2ccc(Cl)cc12; 45

If you can, please state the reported Plant response rating, Nutsedge, Yellow value of `CCC(=O)Oc1c(C)nn(C)c(=O)c1-c1ccc(Br)c2ccccc12` .
75

Fill in: Plant response rating, Nutsedge, Yellow of `Cc1cc(C)c2ccccc2c1-c1c(OS(C)(=O)=O)c(C)nn(C)c1=O` is ___
70

----------
Plant response rating, Foxtail, Green listing for selected compounds.
Tested on: foxtail, green (green foxtail, Setaria viridis)
Assay: Test D controlled growth environment herbicide test, pre- and postemergence
Assay type: in vivo
Conditions: Preemergence, 250 g ai/ha; scale 0 to 100 (0 no effect, 100 complete control)
Number, no unit, nothing else.

A selection of reference data follows.
Cc1cc(C)c2sc(C)c(-c3c(OC(=O)OC(C)C)c(C)nn(C)c3=O)c2c1 [Compound 67]; 85
CCOC(=O)Oc1c(C)nn(C)c(=O)c1-c1c(C)ccc2ccccc12 [Compound 73]; 100
COC(=O)Oc1c(C)nn(C)c(=O)c1-c1c(C)sc2c(C)cc(C)cc12 [Compound 81]; 100

I have this compound here, CCC(=O)Oc1c(C)nn(C)c(=O)c1-c1c(C)sc2ccc(Cl)cc12 [Compound 109] , and I need its recorded Plant response rating, Foxtail, Green.
95

----------
Tested on: barley, spring (spring barley, Hordeum vulgare)
Assay: Test D controlled growth environment herbicide test, pre- and postemergence
Assay type: in vivo
Settings: postemergence, 62 g ai/ha; scale 0 to 100, 0 no effect, 100 complete control
Measured Plant response rating, Barley, Spring values are reported for all entries that follow.

COc1nn(C)c(=O)c(-c2c(C)ccc3ccccc23)c1O; 0
Cc1nn(C)c(=O)c(-c2c(C)sc3ccc(Cl)cc23)c1O; 10

Would you kindly look at the next entry?
// query Plant response rating, Barley, Spring value for entry `CCOC(=O)Oc1c(C)nn(C)c(=O)c1-c1c(C)ccc2ccccc12`
25

----------
Test system: lambsquarters (Chenopodium album)
Experiment: Test C greenhouse herbicide test, pre- and postemergence
Format: in vivo
Details: postemergence, 62 g ai/ha; scale 0 to 100, 0 no effect, 100 complete control
Each item that follows carries a reported Lambsquarters plant response rating.
Returns: the value as a bare number; no unit string appended.

Some molecules with known Lambsquarters plant response rating results, for comparison:
COc1nn(C)c(=O)c(-c2c(C)sc3ccccc23)c1O; 95
CC(=O)Oc1c(C)nn(C)c(=O)c1-c1ccc(F)c2ccccc12; 98
CC(=O)Oc1c(C)nn(C)c(=O)c1-c1c(C)sc2ccc(C)cc12; 95

What value of Lambsquarters plant response rating has been recorded for this entry: `COc1ccc2ccccc2c1-c1c(O)c(C)nn(C)c1=O`
70

Dear colleague, I am looking for the recorded Lambsquarters plant response rating of the following molecule: `CCOC(=O)Oc1c(C)nn(C)c(=O)c1-c1c(C)sc2ccc(C)cc12`
98

// data source = patent US10597388B2
